Applied Conditions: buffer; pH 7.4; 200.0 µM
Observed Property: solubility kinetic

For orientation, consider the following solved cases.
Would you kindly share the measured solubility kinetic for "CN(CC(=O)NC(=O)Nc1ccccc1F)Cc1ccccc1F" ? 2.7 µg/mL

For "Cn1c(N)c(C(=O)COC(=O)/C=C/c2ccc(Cl)cc2Cl)c(=O)n(C)c1=O" , what is its reported solubility kinetic? 2.9 µg/mL

So what's the measured solubility kinetic for this one? "CCOC(=O)c1cc2c(nc1N)CCCC2" 24.7 µg/mL

# get_value(readout='solubility kinetic', item= "CCc1ccccc1NC(=O)c1ccc2c(c1)CCN2S(C)(=O)=O" ) 0.8 µg/mL

Give the measured solubility kinetic of "COc1ccc(OC)c(S(=O)(=O)NCC(=O)O)c1" . 34.1 µg/mL

For the compound shown here, "O=C(Nc1nccs1)c1cccnc1Cl" , give the reported solubility kinetic. > 36 µg/mL

// solubility kinetic lookup, key: CCC(C)c1ccccc1OCCCN(C)Cc1ccccc1 (centres undefined) 4.1 µg/mL

# solubility kinetic lookup, item "NC(=O)C1CCN(C(=O)c2cc3c(s2)CCCC3)CC1" 43.7 µg/mL

Quick check: solubility kinetic of CC(C)Oc1cccc(C(=O)C2CCCN(C(=O)c3ccoc3)C2)c1 (centres undefined) ? 32.3 µg/mL

Returns the measured solubility kinetic for the input compound. Input: "CCOC(=O)CSc1nc(C)c2cccc(C)c2n1" 30.6 µg/mL

More entries:
Recorded solubility kinetic for "CCCCNC(=O)c1cc2c(=O)n3cccc(C)c3nc2s1" , please? 1.3 µg/mL

May I ask what solubility kinetic has been recorded for "CN(CC(=O)Nc1cccc(F)c1)C(=O)C1=COCCO1" ? > 44.1 µg/mL

GET /values?readout=solubility kinetic&item= "COc1ccc(NC(=O)c2ccc(S(=O)(=O)N3CCOCC3)o2)cc1" 10.7 µg/mL

# solubility kinetic lookup, item "CC(C)NC(=O)COC(=O)c1ccc(Cl)c(S(N)(=O)=O)c1" > 50.2 µg/mL

Form field: reported solubility kinetic of "COCCN(CC(=O)Nc1cccc(C)c1C)C(=O)c1oc2ccccc2c1C" 7.4 µg/mL

Item "COc1ccc(CC(=O)Nc2ccccc2-c2ccccc2)cc1OC" has what recorded solubility kinetic? 43.9 µg/mL

Which solubility kinetic is listed for Cl.OC(CNC1CCCC1)COc1ccc(F)cc1 (centres undefined) ? 36.6 µg/mL

So what's the measured solubility kinetic for this one? "Cc1c(-c2ccccc2)[n+](=O)c2c(n1[O-])CCCC2" > 38.4 µg/mL

Would you mind telling me what solubility kinetic value was observed for "CCN(CC)CCC(=O)c1ccc(F)cc1.Cl" ? > 39 µg/mL

###

Applied Conditions: buffer; pH 7.4; 200.0 µM
Observed Property: solubility kinetic

Use these answered entries as a reference point.
Value lookup for solubility kinetic; key = COc1ccc(C(=O)OCC(=O)NCC2CCCO2)c(F)c1 (stereo not drawn) > 46.7 µg/mL

# lookup: solubility kinetic of Cc1ccc(C(C)NC(=O)c2ccncc2)c(C)c1 (stereo not drawn) > 38.1 µg/mL

State the recorded solubility kinetic for this entry: "Cc1ccc(CNCc2ccco2)cc1.O=C(O)C(=O)O" > 43.7 µg/mL

Given O=C(COC(=O)CSc1ccc([N+](=O)[O-])cc1)NCC1CCCO1 (stereo not drawn) , state its recorded solubility kinetic. > 53.2 µg/mL

Given the molecule "CC1CCN(c2nc3ccccn3c(=O)c2C=O)CC1" , what is its reported solubility kinetic? > 40.7 µg/mL

More entries:
# lookup: solubility kinetic of "Cn1cncc1C(=O)c1ccccc1" > 27.9 µg/mL

I have this molecule here, "COc1ccc(CN2CSC(=S)N(Cc3ccc(OC)cc3)C2)cc1" , and I need its recorded solubility kinetic. 0.8 µg/mL

If you can, please state the reported solubility kinetic value of CC(OC(=O)c1cccc(N(C)C)c1)C(=O)N1CCc2ccccc2C1 (stereo not drawn) . 37.3 µg/mL

What solubility kinetic value was documented for this molecule, NC(=O)CCC1NC(=S)N(Cc2ccccc2)C1=O (stereo not drawn) ? 32.6 µg/mL

State the recorded solubility kinetic for this entry: "O=C(CCCc1nc(-c2ccc(Cl)cc2)no1)NC1CCCCC1" 2.1 µg/mL
